subject_of_test: Mu-type opioid receptor (Cavia porcellus) (UniProt P97266)
Sequence (P97266 whole entry): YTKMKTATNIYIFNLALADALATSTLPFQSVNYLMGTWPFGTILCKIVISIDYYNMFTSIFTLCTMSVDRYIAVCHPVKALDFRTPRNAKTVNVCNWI
measurement_protocol: Antagonistic activity against DAMGO and guinea pig caudate Opioid receptor mu 1 in [35S]GTP-gamma-S, assay
Type: functional
Ke less than 20 nM is T; Ke greater than or equal to 20 nM is F.

Is Ke strictly under 20 nM for the entry `CC(C)[C@@H](CN1CC[C@@](C)(c2cccc(O)c2)[C@@H](C)C1)NC[C@H]1Cc2ccc(O)cc2CN1` ?
T

Is Ke strictly under 20 nM for the entry `CC(C)[C@@H](CN1CC[C@@](C)(c2cccc(O)c2)[C@@H](C)C1)NC(=O)[C@@H]1Cc2ccc(O)cc2CN1` ?
T

Is Ke strictly under 20 nM for the entry `CC(C)[C@@H](CN1CC[C@@](C)(c2cccc(O)c2)[C@@H](C)C1)NC(=O)[C@H]1Cc2ccc(O)cc2CN1` ?
T

Is Ke strictly under 20 nM for the entry `CC(C)[C@@H](CN1CC[C@@](C)(c2cccc(O)c2)[C@@H](C)C1)NC(=O)[C@H]1Cc2ccc(O)cc2CN1C` ?
T

Is Ke strictly under 20 nM for the entry CC(C)[C@@H](CN1CC[C@@](C)(c2cccc(O)c2)[C@@H](C)C1)NC(=O)[C@@H](N)Cc1ccc(O)cc1 (stereo in doubt; form 1) ?
T

Is Ke strictly under 20 nM for the entry `CC(C)[C@@H](CN1CC[C@@](C)(c2cccc(O)c2)[C@@H](C)C1)NC(=O)[C@H]1Cc2ccc(O)cc2CN1C(=O)CN(C)C` ?
F

Is Ke strictly under 20 nM for the entry CC(C)[C@@H](CN1CC[C@@](C)(c2cccc(O)c2)[C@@H](C)C1)NC(=O)[C@@H](N)Cc1ccc(O)cc1 (stereo in doubt; form 2) ?
T

Is Ke strictly under 20 nM for the entry `CC(=O)N1Cc2cc(O)ccc2C[C@@H]1C(=O)N[C@H](CN1CC[C@@](C)(c2cccc(O)c2)[C@@H](C)C1)C(C)C` ?
T

Is Ke strictly under 20 nM for the entry `CC(C)[C@@H](CN1CC[C@](C)(c2cccc(O)c2)[C@H](C)C1)NC(=O)[C@H]1Cc2ccc(O)cc2CN1` ?
F

====

subject_of_test: Mu-type opioid receptor (Homo sapiens, UniProt P35372)
Sequence (P35372 whole entry): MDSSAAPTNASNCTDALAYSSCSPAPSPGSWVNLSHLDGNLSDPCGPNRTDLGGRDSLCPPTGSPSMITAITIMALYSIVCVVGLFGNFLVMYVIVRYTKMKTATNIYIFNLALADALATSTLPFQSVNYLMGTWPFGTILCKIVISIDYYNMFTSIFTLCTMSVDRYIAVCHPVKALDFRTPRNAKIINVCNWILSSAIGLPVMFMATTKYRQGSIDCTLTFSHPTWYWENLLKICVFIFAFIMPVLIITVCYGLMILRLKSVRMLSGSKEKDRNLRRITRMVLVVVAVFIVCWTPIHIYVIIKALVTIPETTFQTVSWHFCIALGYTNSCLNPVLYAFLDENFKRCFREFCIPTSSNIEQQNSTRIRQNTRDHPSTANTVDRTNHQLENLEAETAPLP
measurement_protocol: Antagonistic activity against human cloned Opioid receptor mu 1 using DAMGO in [35S]GTP-gamma-S, assay
Assay type: functional
measurement_type: Ke (nM)
Give the value, in units of nM, as a plain number.

Mu-type opioid receptor (Homo sapiens, UniProt P35372) Ke of `CC(C)[C@@H](CN1CC[C@@](C)(c2cccc(O)c2)[C@@H](C)C1)NC(=O)[C@H]1Cc2ccc(O)cc2CN1C` is 8.92

Mu-type opioid receptor (Homo sapiens, UniProt P35372) Ke of `CC(C)[C@@H](CN1CC[C@@](C)(c2cccc(O)c2)[C@@H](C)C1)NC(=O)[C@H]1Cc2ccccc2CN1` is 8.38

Mu-type opioid receptor (Homo sapiens, UniProt P35372) Ke of `CC(C)[C@@H](CN1CC[C@@](C)(c2cccc(O)c2)[C@@H](C)C1)NC(=O)[C@H]1Cc2ccc(O)cc2CN1C(=O)CN(C)C` is 21.2

Mu-type opioid receptor (Homo sapiens, UniProt P35372) Ke of CC(C)[C@@H](CN1CC[C@@](C)(c2cccc(O)c2)[C@@H](C)C1)NC(=O)[C@H]1Cc2ccc(O)cc2CN1 [JDTIC] is 3.41

====

Give pKi for every item shown.
Units for pKi: none; it is -log10 of a concentration expressed in mol/L.

Mu-type opioid receptor (Homo sapiens, UniProt P35372) pKi of `CC(C)[C@@H](CN1CC[C@@](C)(c2cccc(O)c2)[C@@H](C)C1)NC(=O)[C@H]1Cc2ccc(O)cc2CN1C(=O)CN(C)C` is 7.88

Mu-type opioid receptor (Homo sapiens, UniProt P35372) pKi of `CC(C)[C@@H](CN1CC[C@@](C)(c2cccc(O)c2)[C@@H](C)C1)NC(=O)[C@H]1Cc2ccc(O)cc2CN1C` is 8.05

Mu-type opioid receptor (Homo sapiens, UniProt P35372) pKi of `CC(C)[C@@H](CN1CC[C@@](C)(c2cccc(O)c2)[C@@H](C)C1)NC(=O)[C@H]1Cc2ccccc2CN1` is 7.48

Mu-type opioid receptor (Homo sapiens, UniProt P35372) pKi of `CC(C)[C@@H](CN1CC[C@@](C)(c2cccc(O)c2)[C@@H](C)C1)NC[C@H]1Cc2ccc(O)cc2CN1` is 8.42

====

subject_of_test: Delta-type opioid receptor (Homo sapiens)
Sequence (P41143 whole entry): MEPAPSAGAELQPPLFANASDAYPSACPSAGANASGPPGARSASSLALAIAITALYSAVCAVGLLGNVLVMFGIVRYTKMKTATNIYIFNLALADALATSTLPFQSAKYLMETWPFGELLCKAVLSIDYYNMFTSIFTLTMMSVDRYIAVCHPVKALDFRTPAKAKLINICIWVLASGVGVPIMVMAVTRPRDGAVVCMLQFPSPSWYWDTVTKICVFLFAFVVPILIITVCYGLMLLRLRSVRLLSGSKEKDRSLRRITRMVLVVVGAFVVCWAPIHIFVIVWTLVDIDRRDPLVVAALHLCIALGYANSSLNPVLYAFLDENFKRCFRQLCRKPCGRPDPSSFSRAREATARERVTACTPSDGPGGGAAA
measurement_protocol: Binding affinity towards human cloned Opioid receptor delta 1 using [3H]Cl-DPDPE
measurement_type: Ki (nM)
Give the value, in units of nM, as a plain number.

The molecule listed as `CC(C)[C@@H](CN1CC[C@@](C)(c2cccc(O)c2)[C@@H](C)C1)NC(=O)[C@H]1Cc2ccccc2CN1` shows Ki equal to 1090

The molecule listed as `CC(C)[C@@H](CN1CC[C@@](C)(c2cccc(O)c2)[C@@H](C)C1)NC(=O)[C@H]1Cc2ccc(O)cc2CN1C(=O)CN(C)C` shows Ki equal to 175

The molecule listed as `CC(C)[C@@H](CN1CC[C@@](C)(c2cccc(O)c2)[C@@H](C)C1)NC(=O)[C@H]1Cc2ccc(O)cc2CN1C` shows Ki equal to 118

The molecule listed as `CC(C)[C@@H](CN1CC[C@@](C)(c2cccc(O)c2)[C@@H](C)C1)NC[C@H]1Cc2ccc(O)cc2CN1` shows Ki equal to 83.6

====

Give Ki for every item shown.
Give the value, in units of nM, as a plain number.

Kappa-type opioid receptor (Homo sapiens) Ki of `CC(C)[C@@H](CN1CC[C@@](C)(c2cccc(O)c2)[C@@H](C)C1)NC(=O)[C@H]1Cc2ccc(O)cc2CN1C(=O)CN(C)C` is 16.2

Kappa-type opioid receptor (Homo sapiens) Ki of `CC(C)[C@@H](CN1CC[C@@](C)(c2cccc(O)c2)[C@@H](C)C1)NC(=O)[C@H]1Cc2ccccc2CN1` is 2.18

Kappa-type opioid receptor (Homo sapiens) Ki of `CC(C)[C@@H](CN1CC[C@@](C)(c2cccc(O)c2)[C@@H](C)C1)NC[C@H]1Cc2ccc(O)cc2CN1` is 1.82

Kappa-type opioid receptor (Homo sapiens) Ki of `CC(C)[C@@H](CN1CC[C@@](C)(c2cccc(O)c2)[C@@H](C)C1)NC(=O)[C@H]1Cc2ccc(O)cc2CN1C` is 1.01

====

subject_of_test: Kappa-type opioid receptor (Homo sapiens, UniProt P41145)
Sequence (P41145 whole entry): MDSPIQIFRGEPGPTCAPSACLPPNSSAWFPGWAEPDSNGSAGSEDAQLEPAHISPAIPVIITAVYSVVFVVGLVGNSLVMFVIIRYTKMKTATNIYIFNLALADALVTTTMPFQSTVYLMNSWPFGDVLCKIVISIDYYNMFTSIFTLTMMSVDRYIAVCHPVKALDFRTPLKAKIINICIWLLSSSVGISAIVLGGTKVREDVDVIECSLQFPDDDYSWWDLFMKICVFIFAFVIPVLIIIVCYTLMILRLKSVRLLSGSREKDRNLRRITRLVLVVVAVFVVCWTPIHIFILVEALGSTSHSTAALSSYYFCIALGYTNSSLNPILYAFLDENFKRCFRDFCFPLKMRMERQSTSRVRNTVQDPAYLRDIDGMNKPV
measurement_protocol: Antagonistic activity against human cloned Opioid receptor kappa 1 using U69,593 in [35S]GTP-gamma-S, assay
Type: functional
Ke less than 0.1 nM is met; Ke greater than or equal to 0.1 nM is not met.

Is Ke strictly under 0.1 nM for the entry `CC(C)[C@@H](CN1CC[C@@](C)(c2cccc(O)c2)[C@@H](C)C1)NC(=O)[C@H]1Cc2ccc(O)cc2CN1C(=O)CN(C)C` ?
not met

Is Ke strictly under 0.1 nM for the entry `CC(C)[C@@H](CN1CC[C@@](C)(c2cccc(O)c2)[C@@H](C)C1)NC(=O)[C@H]1Cc2ccc(O)cc2CN1` ?
met

Is Ke strictly under 0.1 nM for the entry `CC(C)[C@@H](CN1CC[C@@](C)(c2cccc(O)c2)[C@@H](C)C1)NC(=O)[C@H]1Cc2ccccc2CN1` ?
not met

Is Ke strictly under 0.1 nM for the entry `CC(C)[C@@H](CN1CC[C@@](C)(c2cccc(O)c2)[C@@H](C)C1)NC[C@H]1Cc2ccc(O)cc2CN1` ?
not met

====

subject_of_test: Delta-type opioid receptor (Rattus norvegicus, UniProt P33533)
Sequence (P33533 whole entry): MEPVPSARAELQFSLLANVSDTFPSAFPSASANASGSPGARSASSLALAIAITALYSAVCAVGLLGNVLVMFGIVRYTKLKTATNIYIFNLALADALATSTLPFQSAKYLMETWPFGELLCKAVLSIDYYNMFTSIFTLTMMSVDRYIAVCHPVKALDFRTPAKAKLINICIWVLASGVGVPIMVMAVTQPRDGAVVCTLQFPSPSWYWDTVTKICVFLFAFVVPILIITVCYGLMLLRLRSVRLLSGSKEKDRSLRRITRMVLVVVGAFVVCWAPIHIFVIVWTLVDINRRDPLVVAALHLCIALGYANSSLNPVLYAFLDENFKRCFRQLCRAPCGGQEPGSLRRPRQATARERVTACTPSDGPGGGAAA
measurement_protocol: Inhibition of [3H]-DADLE binding to Opioid receptor delta 1 of rat brain tissue
pKi: −log10 of the molar value.
Give pKi for every item shown.

Delta-type opioid receptor (Rattus norvegicus, UniProt P33533) pKi of `N=C(N)Nc1ccc2[nH]c3c(c2c1)C[C@@]1(O)[C@H]2Cc4ccc(O)c5c4[C@@]1(CCN2CC1CC1)[C@H]3O5` is 7.15

Delta-type opioid receptor (Rattus norvegicus, UniProt P33533) pKi of `CC(C)[C@@H](CN1CC[C@@](C)(c2cccc(O)c2)[C@@H](C)C1)NC(=O)[C@H]1Cc2ccc(O)cc2CN1C` is 6.21

Delta-type opioid receptor (Rattus norvegicus, UniProt P33533) pKi of `CC(C)[C@@H](CN1CC[C@@](C)(c2cccc(O)c2)[C@@H](C)C1)NC(=O)[C@@H]1Cc2ccc(O)cc2CN1` is < 5.31

Delta-type opioid receptor (Rattus norvegicus, UniProt P33533) pKi of `CC(C)[C@@H](CN1CC[C@@](C)(c2cccc(O)c2)[C@@H](C)C1)NC[C@H]1Cc2ccc(O)cc2CN1` is < 5.31

Delta-type opioid receptor (Rattus norvegicus, UniProt P33533) pKi of `CC(C)[C@@H](CN1CC[C@](C)(c2cccc(O)c2)[C@H](C)C1)NC(=O)[C@H]1Cc2ccc(O)cc2CN1` is 6.84

Delta-type opioid receptor (Rattus norvegicus, UniProt P33533) pKi of `CC(C)[C@@H](CN1CC[C@@](C)(c2cccc(O)c2)[C@@H](C)C1)NC(=O)[C@H]1Cc2ccccc2CN1` is < 5.31

Delta-type opioid receptor (Rattus norvegicus, UniProt P33533) pKi of `CC(C)[C@@H](CN1CC[C@@](C)(c2cccc(O)c2)[C@@H](C)C1)NC(=O)[C@H]1Cc2ccc(O)cc2CN1` is 6.52

Delta-type opioid receptor (Rattus norvegicus, UniProt P33533) pKi of `CC(=O)N1Cc2cc(O)ccc2C[C@@H]1C(=O)N[C@H](CN1CC[C@@](C)(c2cccc(O)c2)[C@@H](C)C1)C(C)C` is < 5.31

Delta-type opioid receptor (Rattus norvegicus, UniProt P33533) pKi of CC(C)[C@@H](CN1CC[C@@](C)(c2cccc(O)c2)[C@@H](C)C1)NC(=O)[C@@H](N)Cc1ccc(O)cc1 (stereo in doubt; form 1) is < 5.30

Delta-type opioid receptor (Rattus norvegicus, UniProt P33533) pKi of CC(C)[C@@H](CN1CC[C@@](C)(c2cccc(O)c2)[C@@H](C)C1)NC(=O)[C@@H](N)Cc1ccc(O)cc1 (stereo in doubt; form 2) is < 5.30

Delta-type opioid receptor (Rattus norvegicus, UniProt P33533) pKi of `CC(C)[C@@H](CN1CC[C@@](C)(c2cccc(O)c2)[C@@H](C)C1)NC(=O)[C@H]1Cc2ccc(O)cc2CN1C(=O)CN(C)C` is < 5.47
